System: CU-ACC2
ASSAY INFO: area under concentration-response curve (viability) (AUC (a.u.)); higher = less active
REPORTED CONDITIONS: 48 h
Kindly state area under concentration-response curve for each of the entries shown.
// print number alone

Input: Supply reported area under concentration-response curve belonging to this compound: "c1cc(N[C@@H]2CCNC2)nc(-c2cnc3ccc(-c4cn[nH]c4)cn23)c1"
Output: 380

Input: Supply reported area under concentration-response curve belonging to this compound: "c1cc(-c2sc(-c3ccncc3)c(-c3ccncc3)c2-c2ccncc2)ccn1"
Output: 544

Input: Supply reported area under concentration-response curve belonging to this compound: "COc1ccc([S+](=O)([O-])N2CCc3cccc(-c4ccncc4)c32)cc1"
Output: 563

Input: Supply reported area under concentration-response curve belonging to this compound: COC1=C(NC2=NC=C(Cl)C(=N2)N[C@@H]3[C@H]\4C[C@@H](\C=C4)[C@H]3C(N)=O)C=CC5=C1CCC(CC5)N6CCOCC6 (stereo partly drawn)
Output: 600

Input: Supply reported area under concentration-response curve belonging to this compound: "C[C@]12Cc3cn[nH]c3C[C@@H]1CC[C@@H]1[C@@H]2CC[C@@]2(C)[C@H]1CC[C@]2(C)O"
Output: 214

Input: Supply reported area under concentration-response curve belonging to this compound: "CN(C)c1cc2c(cc1Sc1nc3c(N)nccc3n1CCNCC(C)(C)C)OCO2"
Output: 499

Input: Supply reported area under concentration-response curve belonging to this compound: "CC(=O)N[C@H]1[C@H](O[C@@H]2c3ccc(c(Cl)c3)Oc3cc4cc(c3O[C@@H]3O[C@H](CO)[C@@H](O)[C@H](O)[C@H]3NC(=O)CCCCCCCC(C)C)Oc3ccc(cc3Cl)C[C@H]3NC(=O)[C@H](N)c5ccc(O)c(c5)Oc5cc(O)cc(c5)[C@H](NC3=O)C(=O)N[C@H]4C(=O)N[C@H]3C(=O)N[C@@H]2C(=O)N[C@@H](C(=O)O)c2cc(O)cc(O[C@H]4O[C@H](CO)[C@@H](O)[C@H](O)[C@@H]4O)c2-c2cc3ccc2O)O[C@H](CO)[C@@H](O)[C@@H]1O"
Output: 593

Input: Supply reported area under concentration-response curve belonging to this compound: "Nc1nc(Cl)nc2c1ncn2[C@@H]1O[C@H](CO)[C@@H](O)[C@@H]1F"
Output: 559

Input: Supply reported area under concentration-response curve belonging to this compound: "Nc1nccc(-c2c(-c3ccc(F)cc3)ncn2C2CCN(Cc3ccon3)CC2)n1"
Output: 578

Input: Supply reported area under concentration-response curve belonging to this compound: "[2H]c1nc(C)nc([2H])c1-c1cc(NC[C@@H](C)c2cccc3c(C(=O)NC)ccnc23)ncn1"
Output: 629

Input: Supply reported area under concentration-response curve belonging to this compound: "N=C(NCCCCCCNC(=N)NC(=N)Nc1ccc(Cl)cc1)NC(=N)Nc1ccc(Cl)cc1"
Output: 573

Input: Supply reported area under concentration-response curve belonging to this compound: "COC(=O)N[C@H](C(=O)N1CCC[C@H]1c1ncc(-c2ccc(-c3ccc(-c4cnc([C@@H]5CCCN5C(=O)[C@@H](NC(=O)OC)C(C)C)[nH]4)cc3)cc2)[nH]1)C(C)C"
Output: 561

Input: Supply reported area under concentration-response curve belonging to this compound: "COC1=CC(=CC(=C1CN(C)C)OC)\C2=C\N(C)C(=O)C3=C2C=CN=C3"
Output: 578
